assay.details: The drug is tested on Subdoligranulum variabile strain: DSM15176 for biotransformation. The drug concentrations were measured before and after a 12-h incubation by liquid-chromatography-coupled mass spectrometry (LC–MS)
experimental.setup: 2 µM

>  <molecule>
CCOC(=O)[C@H](CCc1ccccc1)N[C@H]1CCc2ccccc2N(CC(=O)O)C1=O

>  <Bacterial Biotransformation>
Compound NOT metabolized

$$$$
>  <molecule>
CN(C/C=C/C#CC(C)(C)C)Cc1cccc2ccccc12

>  <Bacterial Biotransformation>
Compound NOT metabolized

$$$$
>  <molecule>
CCN(CC)CCCC(C)Nc1c2ccc(Cl)cc2nc2ccc(OC)cc12 (stereo not given)

>  <Bacterial Biotransformation>
Compound NOT metabolized

$$$$
>  <molecule>
CC(=O)Nc1ccc(OC(C)=O)cc1 [DIACETAMATE]

>  <Bacterial Biotransformation>
Compound metabolized

$$$$
>  <molecule>
CCN(CC)CCNC(C(=O)OCCC(C)C)c1ccccc1.Cl.Cl (stereo not given)

>  <Bacterial Biotransformation>
Compound metabolized

$$$$

###

assay.details: The drug is tested on Enterococcus faecalis strain: V583 for biotransformation. The drug concentrations were measured before and after a 12-h incubation by liquid-chromatography-coupled mass spectrometry (LC–MS)
experimental.setup: 2 µM

>  <molecule>
CC(C)(C)NC(=O)[C@H]1CC[C@H]2[C@@H]3CC[C@H]4NC(=O)C=C[C@]4(C)[C@H]3CC[C@]12C [FINASTERIDE]

>  <Bacterial Biotransformation>
Compound NOT metabolized

$$$$
>  <molecule>
CC(C)NCC(O)COc1ccc(CCOCC2CC2)cc1 (stereo not drawn) [BETAXOLOL]

>  <Bacterial Biotransformation>
Compound NOT metabolized

$$$$
>  <molecule>
O=C1CN2Cc3c(ccc(Cl)c3Cl)N=C2N1 [ANAGRELIDE]

>  <Bacterial Biotransformation>
Compound NOT metabolized

$$$$
>  <molecule>
CCOc1ccccc1OCCN[C@H](C)Cc1ccc(OC)c(S(N)(=O)=O)c1.Cl [TAMSULOSIN HYDROCHLORIDE]

>  <Bacterial Biotransformation>
Compound NOT metabolized

$$$$
>  <molecule>
COc1c2occc2cc2ccc(=O)oc12 [METHOXSALEN]

>  <Bacterial Biotransformation>
Compound NOT metabolized

$$$$
>  <molecule>
CCc1nc(N)nc(N)c1-c1ccc(Cl)cc1 [PYRIMETHAMINE]

>  <Bacterial Biotransformation>
Compound NOT metabolized

$$$$
>  <molecule>
O=C1C(CC[S+]([O-])c2ccccc2)C(=O)N(c2ccccc2)N1c1ccccc1 (stereo not drawn) [SULFINPYRAZONE]

>  <Bacterial Biotransformation>
Compound NOT metabolized

$$$$
>  <molecule>
CC(C)(C)NC[C@H](O)COc1nsnc1N1CCOCC1.O=C(O)/C=C\C(=O)O [TIMOLOL MALEATE]

>  <Bacterial Biotransformation>
Compound NOT metabolized

$$$$
>  <molecule>
O=c1[nH]c2ccccc2n1C1CCN(CCCC(c2ccc(F)cc2)c2ccc(F)cc2)CC1 [PIMOZIDE]

>  <Bacterial Biotransformation>
Compound NOT metabolized

$$$$
>  <molecule>
COC(=O)Nc1nc2ccc(C(=O)c3ccccc3)cc2[nH]1 [MEBENDAZOLE]

>  <Bacterial Biotransformation>
Compound NOT metabolized

$$$$
>  <molecule>
CC(C)(Oc1ccc(CCNC(=O)c2ccc(Cl)cc2)cc1)C(=O)O [BEZAFIBRATE]

>  <Bacterial Biotransformation>
Compound NOT metabolized

$$$$
>  <molecule>
CC(CN1c2ccccc2Sc2ccccc21)N(C)C (stereo not drawn) [PROMETHAZINE]

>  <Bacterial Biotransformation>
Compound NOT metabolized

$$$$
>  <molecule>
C[N+]12CCC(CC1)C(OC(=O)C(O)(c1ccccc1)c1ccccc1)C2.[Br-] (stereo not drawn) [CLIDINIUM BROMIDE]

>  <Bacterial Biotransformation>
Compound NOT metabolized

$$$$
>  <molecule>
CN(C)C(=O)C(CCN1CCC(O)(c2ccc(Cl)cc2)CC1)(c1ccccc1)c1ccccc1 [LOPERAMIDE]

>  <Bacterial Biotransformation>
Compound NOT metabolized

$$$$
>  <molecule>
CC(C)NCC(O)c1ccc(NS(C)(=O)=O)cc1 (stereo not drawn) [SOTALOL]

>  <Bacterial Biotransformation>
Compound NOT metabolized

$$$$
>  <molecule>
COC(=O)[C@H](c1ccccc1Cl)N1CCc2sccc2C1.O=S(=O)(O)O [CLOPIDOGREL BISULFATE]

>  <Bacterial Biotransformation>
Compound NOT metabolized

$$$$
>  <molecule>
C[C@@H]1C[C@H]2[C@@H]3CCC4=CC(=O)C=C[C@]4(C)[C@@]3(F)[C@@H](O)C[C@]2(C)[C@@]1(O)C(=O)CO [DEXAMETHASONE]

>  <Bacterial Biotransformation>
Compound NOT metabolized

$$$$
>  <molecule>
CN/C(=N/CCSCc1nc[nH]c1C)NC#N [CIMETIDINE]

>  <Bacterial Biotransformation>
Compound NOT metabolized

$$$$

###

assay.details: The drug is tested on Salmonella typhimurium strain: LT2 for biotransformation. The drug concentrations were measured before and after a 12-h incubation by liquid-chromatography-coupled mass spectrometry (LC–MS)
experimental.setup: salmonella enterica subsp. enterica, 2 µM

>  <compound>
COc1ccc2cc([C@H](C)C(=O)O)ccc2c1

>  <Bacterial Biotransformation>
Compound NOT metabolized

$$$$
>  <compound>
COC(=O)Nc1nc2ccc(C(=O)c3ccccc3)cc2[nH]1

>  <Bacterial Biotransformation>
Compound NOT metabolized

$$$$
>  <compound>
CCCC(=O)Nc1ccc(OCC(O)CNC(C)C)c(C(C)=O)c1 (stereo unspecified)

>  <Bacterial Biotransformation>
Compound NOT metabolized

$$$$
>  <compound>
C#C[C@]1(OC(C)=O)CC[C@H]2[C@@H]3CCC4=C/C(=N/O)CC[C@@H]4[C@H]3CC[C@@]21CC [NORGESTIMATE]

>  <Bacterial Biotransformation>
Compound NOT metabolized

$$$$
>  <compound>
CC(CCc1ccccc1)NCC(O)c1ccc(O)c(C(N)=O)c1 (stereo unspecified)

>  <Bacterial Biotransformation>
Compound NOT metabolized

$$$$
>  <compound>
CN1[C@@H]2CC[C@H]1C[C@@H](OC(=O)C(CO)c1ccccc1)C2 (stereo partly specified)

>  <Bacterial Biotransformation>
Compound NOT metabolized

$$$$

###

assay.details: The drug is tested on Bacteroides xylanisolvens strain: DSM18836 for biotransformation. The drug concentrations were measured before and after a 12-h incubation by liquid-chromatography-coupled mass spectrometry (LC–MS)
experimental.setup: 2 µM
property.label: Bacterial Biotransformation

>  <compound>
Cc1ccc(S(=O)(=O)NC(=O)NN2CC3CCCC3C2)cc1 (centres undefined) [GLICLAZIDE]

>  <endpoint.value>
Compound NOT metabolized

$$$$
>  <compound>
O=c1[nH]c2ccccc2n1C1CCN(CCCC(c2ccc(F)cc2)c2ccc(F)cc2)CC1 [PIMOZIDE]

>  <endpoint.value>
Compound NOT metabolized

$$$$
>  <compound>
COC(=O)[C@H]1[C@H]2C[C@@H]3c4[nH]c5cc(OC)ccc5c4CCN3C[C@H]2C[C@@H](OC(=O)c2cc(OC)c(OC)c(OC)c2)[C@@H]1OC

>  <endpoint.value>
Compound NOT metabolized

$$$$

###

experimental.setup: anaerostipes sp., 12 h, 2 µM
Description: The drug is tested on Anaerostipes sp. strain: fecal isolate for biotransformation. The drug concentrations were measured before and after a 12-h incubation by liquid-chromatography-coupled mass spectrometry (LC–MS)
property.label: Bacterial Biotransformation

>  <compound>
CN1CCC(OC(c2ccccc2)c2ccccc2)CC1

>  <property.label>
Bacterial Biotransformation

>  <endpoint.value>
Compound NOT metabolized

$$$$
>  <compound>
COC(=O)C1=C(C)NC(C)=C(C(=O)OC(C)C)C1c1cccc2nonc12 (centres undefined)

>  <property.label>
Bacterial Biotransformation

>  <endpoint.value>
Compound NOT metabolized

$$$$
>  <compound>
Br.CN(C)CCCC1(c2ccc(F)cc2)OCc2cc(C#N)ccc21 (centres undefined) [CITALOPRAM HYDROBROMIDE]

>  <property.label>
Bacterial Biotransformation

>  <endpoint.value>
Compound NOT metabolized

$$$$

###

assay.details: The drug is tested on Bacteroides uniformis strain: ATCC8492 for biotransformation. The drug concentrations were measured before and after a 12-h incubation by liquid-chromatography-coupled mass spectrometry (LC–MS)
experimental.setup: 2 µM

>  <molecule>
Nc1nc2ccc(OC(F)(F)F)cc2s1 [RILUZOLE]

>  <Bacterial Biotransformation>
Compound metabolized

$$$$
>  <molecule>
Clc1ccc(Cn2c(CN3CCCC3)nc3ccccc32)cc1 [CLEMIZOLE]

>  <Bacterial Biotransformation>
Compound NOT metabolized

$$$$
>  <molecule>
CCOC(=O)[C@H](CCc1ccccc1)N[C@@H](C)C(=O)N1Cc2ccccc2C[C@H]1C(=O)O

>  <Bacterial Biotransformation>
Compound metabolized

$$$$
>  <molecule>
CC(N)C12CC3CC(CC(C3)C1)C2 (centres undefined) [RIMANTADINE]

>  <Bacterial Biotransformation>
Compound NOT metabolized

$$$$
>  <molecule>
CC(=O)O[C@]1(C(C)=O)CC[C@H]2[C@@H]3C=C(Cl)C4=CC(=O)[C@@H]5C[C@@H]5[C@]4(C)[C@H]3CC[C@@]21C [CYPROTERONE ACETATE]

>  <Bacterial Biotransformation>
Compound metabolized

$$$$
>  <molecule>
COc1ccc(C(CN(C)C)C2(O)CCCCC2)cc1 (centres undefined) [VENLAFAXINE]

>  <Bacterial Biotransformation>
Compound NOT metabolized

$$$$
>  <molecule>
Cc1ccccc1C(OCCN(C)C)c1ccccc1.O=C(O)CC(O)(CC(=O)O)C(=O)O (centres undefined) [ORPHENADRINE CITRATE]

>  <Bacterial Biotransformation>
Compound NOT metabolized

$$$$
>  <molecule>
O=C(CCCN1CCC2(CC1)C(=O)NCN2c1ccccc1)c1ccc(F)cc1 [SPIPERONE]

>  <Bacterial Biotransformation>
Compound NOT metabolized

$$$$
>  <molecule>
CN1CCN(C2=Nc3cc(Cl)ccc3Nc3ccccc32)CC1 [CLOZAPINE]

>  <Bacterial Biotransformation>
Compound NOT metabolized

$$$$
>  <molecule>
OC(Cn1cncn1)(Cn1cncn1)c1ccc(F)cc1F [FLUCONAZOLE]

>  <Bacterial Biotransformation>
Compound metabolized

$$$$
>  <molecule>
CCOc1ccc(NC(C)=O)cc1 [PHENACETIN]

>  <Bacterial Biotransformation>
Compound NOT metabolized

$$$$
>  <molecule>
C=CCc1ccccc1OCC(O)CNC(C)C (centres undefined) [ALPRENOLOL]

>  <Bacterial Biotransformation>
Compound NOT metabolized

$$$$
>  <molecule>
O=C1CC2(CCCC2)CC(=O)N1CCCCN1CCN(c2ncccn2)CC1 [BUSPIRONE]

>  <Bacterial Biotransformation>
Compound NOT metabolized

$$$$
>  <molecule>
CN1CCC(OC(c2ccccc2)c2ccccc2)CC1

>  <Bacterial Biotransformation>
Compound NOT metabolized

$$$$
>  <molecule>
OC(c1cc(C(F)(F)F)nc2c(C(F)(F)F)cccc12)C1CCCCN1 (centres undefined) [MEFLOQUINE]

>  <Bacterial Biotransformation>
Compound NOT metabolized

$$$$
>  <molecule>
C[C@@H]1C[C@H]2[C@@H]3CCC4=CC(=O)C=C[C@]4(C)[C@@]3(F)[C@@H](O)C[C@]2(C)[C@@]1(O)C(=O)CO [DEXAMETHASONE]

>  <Bacterial Biotransformation>
Compound metabolized

$$$$
>  <molecule>
CCN(CC)C(C)CN1c2ccccc2Sc2ccccc21 (centres undefined) [ETHOPROPAZINE]

>  <Bacterial Biotransformation>
Compound metabolized

$$$$
>  <molecule>
c1ccc2[nH]c(-c3cscn3)nc2c1 [THIABENDAZOLE]

>  <Bacterial Biotransformation>
Compound NOT metabolized

$$$$
>  <molecule>
CO[C@]12C[C@@H](COC(=O)c3cncc(Br)c3)CN(C)[C@@H]1Cc1cn(C)c3cccc2c13 [NICERGOLINE]

>  <Bacterial Biotransformation>
Compound metabolized

$$$$
